test system: Mycobacterium tuberculosis; experiment: Antitubercular activity against rifampicin-resistant Mycobacterium tuberculosis H37Rv harboring RpoB S522L mutant; assay type: functional
MIC strictly under 0.04 µg/mL means satisfied; at 0.04 µg/mL or over means not satisfied.

compound	cat
CO[C@H]1/C=C/O[C@@]2(C)Oc3c(C)c(O)c4c(O)c(c(/C=N/N5CCN(C)CC5)c(O)c4c3C2=O)NC(=O)/C(C)=C\C=C\[C@H](C)[C@H](O)[C@@H](C)[C@@H](O)[C@@H](C)[C@H](OC(C)=O)[C@@H]1C	not satisfied
NNC(=O)c1ccncc1	satisfied
CNc1cc(F)cc2c1[nH]c1nc(CNC(=O)c3cnco3)nc(N3CCC(N)C3)c12 (stereo unspecified)	not satisfied
CO[C@@H]1[C@@H](OC(N)=O)[C@@H](O)[C@H](Oc2ccc3c(O)c(NC(=O)c4ccc(O)c(CC=C(C)C)c4)c(=O)oc3c2C)OC1(C)C	not satisfied
CNc1cc(F)cc2c1[nH]c1nc(CNC(=O)c3cocn3)nc(N3CCC(N)C3)c12 (stereo unspecified)	satisfied

---

test system: Mycobacterium tuberculosis; test: Antitubercular activity against isoniazid-resistant Mycobacterium tuberculosis H37Rv harboring katG Y155 mutant; format: functional

molecule	subject-of-test	inequality-symbol	MIC [µg/mL]
NNC(=O)c1ccncc1 [ISONIAZID]	Mycobacterium tuberculosis	>	27
CO[C@@H]1[C@@H](OC(N)=O)[C@@H](O)[C@H](Oc2ccc3c(O)c(NC(=O)c4ccc(O)c(CC=C(C)C)c4)c(=O)oc3c2C)OC1(C)C [NOVOBIOCIN]	Mycobacterium tuberculosis	=	6.7
CNc1cc(F)cc2c1[nH]c1nc(CNC(=O)c3cnco3)nc(N3CCC(N)C3)c12 (stereo unspecified)	Mycobacterium tuberculosis	=	0.09
CO[C@H]1/C=C/O[C@@]2(C)Oc3c(C)c(O)c4c(O)c(c(/C=N/N5CCN(C)CC5)c(O)c4c3C2=O)NC(=O)/C(C)=C\C=C\[C@H](C)[C@H](O)[C@@H](C)[C@@H](O)[C@@H](C)[C@H](OC(C)=O)[C@@H]1C [RIFAMPIN]	Mycobacterium tuberculosis	=	0.013
CNc1cc(F)cc2c1[nH]c1nc(CNC(=O)c3cocn3)nc(N3CCC(N)C3)c12 (stereo unspecified)	Mycobacterium tuberculosis	=	0.013
COc1c(N2C[C@@H]3CCCN[C@@H]3C2)c(F)cc2c(=O)c(C(=O)O)cn(C3CC3)c12 [MOXIFLOXACIN]	Mycobacterium tuberculosis	=	0.04
